Target: HIV-1 IAVI_C22 Env (HIV-1 strain IAVI C22)
Assay: cell-based or functional assay
Quantity Kind: IC50 neutralization, 18 hour virus/Ab incubation (µg/mL)
Give the value in µg/mL but do not write µg/mL after it.

Incoming: Given the binder 1443_C16 (PG16) (TCN-116) (antibody, V domains shown) VH: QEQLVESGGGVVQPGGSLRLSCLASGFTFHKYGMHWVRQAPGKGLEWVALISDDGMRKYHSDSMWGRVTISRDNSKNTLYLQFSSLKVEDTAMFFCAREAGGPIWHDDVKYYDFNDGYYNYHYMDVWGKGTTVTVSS VL: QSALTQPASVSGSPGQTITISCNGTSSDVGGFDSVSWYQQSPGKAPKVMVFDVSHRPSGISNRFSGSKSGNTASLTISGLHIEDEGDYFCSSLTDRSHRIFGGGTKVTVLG , what is its reported IC50 neutralization, 18 hour virus/Ab incubation?
Outgoing: 0.106

Incoming: Given the binder 1496_C09 (PG9) (TCN-109) (antibody, V domains shown) VH: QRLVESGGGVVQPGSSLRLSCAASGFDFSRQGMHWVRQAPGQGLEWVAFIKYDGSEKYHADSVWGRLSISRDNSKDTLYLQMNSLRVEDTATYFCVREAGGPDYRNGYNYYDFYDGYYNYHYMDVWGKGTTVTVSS VL: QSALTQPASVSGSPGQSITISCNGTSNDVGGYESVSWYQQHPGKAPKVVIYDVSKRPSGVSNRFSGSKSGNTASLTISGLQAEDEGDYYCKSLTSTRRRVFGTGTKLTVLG , what is its reported IC50 neutralization, 18 hour virus/Ab incubation?
Outgoing: 2.11

Now turn to the next binder.
Incoming: Given the binder 1495_C14 (PGC14) (antibody, human IgG1, lambda, V domains shown) VH: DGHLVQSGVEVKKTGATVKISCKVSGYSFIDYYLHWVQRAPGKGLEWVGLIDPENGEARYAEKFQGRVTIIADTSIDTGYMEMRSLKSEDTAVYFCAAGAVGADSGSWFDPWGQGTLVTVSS VL: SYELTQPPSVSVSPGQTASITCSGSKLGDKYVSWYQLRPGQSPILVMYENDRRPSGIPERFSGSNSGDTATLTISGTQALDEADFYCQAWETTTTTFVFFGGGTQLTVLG , what is its reported IC50 neutralization, 18 hour virus/Ab incubation?
Outgoing: 13.4
